Recorded values, source PubChem BioAssay (Tox21).

Test: qHTS assay to identify small molecule antagonists of the estrogen receptor beta (ER-beta) signaling pathway - cell viability counter screen (AID 1259382);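 further: HEK293T cells carrying ER-beta-UAS-bla reporter stimulated with estradiol; nearly all actives have a fitted effect of over 55% in size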
Conditions: ER-beta-UAS-bla HEK293T viability, CellTiter-Glo luminescence, 16 h; series mostly up to 92.4 µM
Inconclusive results are not listed. Calls of active or inactive are those of the source. The call rests on the fitted dose curve; in most records, active means well fitted cell-killing curve with a large enough effect in the repeat runs; inconclusive means weak or mixed curves; inactive means flat fitted curve, though single readings scatter.
reportedProperty: outcome

CC(C)(c1cc(Cl)c(O)c(Cl)c1)c1cc(Cl)c(O)c(Cl)c1 | inactive
c1ccc(N=Nc2ccccc2)cc1 | inactive
CCCCNC(=O)n1c(NC(=O)OC)nc2ccccc21 | inactive

* * *

Molecular target: Nuclear receptor subfamily 1 group I member 3 (Homo sapiens)
Experiment: qHTS assay to identify small molecule agonists of the constitutive androstane receptor (CAR) signaling pathway (AID 1224839); further: nearly all actives have a fitted effect of over 15% in size;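 on activation: HepG2 cells stably carrying human CAR and a CYP2B6 luciferase reporter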
Details: HepG2 hCAR CYP2B6-luciferase, agonist mode, 24 h; series mostly up to 92.4 µM
Results filed as inconclusive are left out. Activity calls are given as the source filed them. The call rests on the fitted dose curve; in most records, active means well fitted activation curve with a large enough effect in the repeat runs; inconclusive means weak or mixed curves; inactive means no such curve, though single readings can be large or run the other way.
Classes to choose from: active, inactive

What call does the record list for CN(C)c1ccc(C(=O)c2ccc(N(C)C)cc2)cc1 ?
active

Kindly provide the recorded test outcome for the following compound: CCCCCCCCC(=O)NCc1ccc(O)c(OC)c1
inactive

Would you mind telling me which call this test gave COP(=O)(OC)OC ?
inactive

* * *

Biological target: Progesterone receptor (Homo sapiens) (UniProt P06401)
Sequence (P06401 whole entry, looked up): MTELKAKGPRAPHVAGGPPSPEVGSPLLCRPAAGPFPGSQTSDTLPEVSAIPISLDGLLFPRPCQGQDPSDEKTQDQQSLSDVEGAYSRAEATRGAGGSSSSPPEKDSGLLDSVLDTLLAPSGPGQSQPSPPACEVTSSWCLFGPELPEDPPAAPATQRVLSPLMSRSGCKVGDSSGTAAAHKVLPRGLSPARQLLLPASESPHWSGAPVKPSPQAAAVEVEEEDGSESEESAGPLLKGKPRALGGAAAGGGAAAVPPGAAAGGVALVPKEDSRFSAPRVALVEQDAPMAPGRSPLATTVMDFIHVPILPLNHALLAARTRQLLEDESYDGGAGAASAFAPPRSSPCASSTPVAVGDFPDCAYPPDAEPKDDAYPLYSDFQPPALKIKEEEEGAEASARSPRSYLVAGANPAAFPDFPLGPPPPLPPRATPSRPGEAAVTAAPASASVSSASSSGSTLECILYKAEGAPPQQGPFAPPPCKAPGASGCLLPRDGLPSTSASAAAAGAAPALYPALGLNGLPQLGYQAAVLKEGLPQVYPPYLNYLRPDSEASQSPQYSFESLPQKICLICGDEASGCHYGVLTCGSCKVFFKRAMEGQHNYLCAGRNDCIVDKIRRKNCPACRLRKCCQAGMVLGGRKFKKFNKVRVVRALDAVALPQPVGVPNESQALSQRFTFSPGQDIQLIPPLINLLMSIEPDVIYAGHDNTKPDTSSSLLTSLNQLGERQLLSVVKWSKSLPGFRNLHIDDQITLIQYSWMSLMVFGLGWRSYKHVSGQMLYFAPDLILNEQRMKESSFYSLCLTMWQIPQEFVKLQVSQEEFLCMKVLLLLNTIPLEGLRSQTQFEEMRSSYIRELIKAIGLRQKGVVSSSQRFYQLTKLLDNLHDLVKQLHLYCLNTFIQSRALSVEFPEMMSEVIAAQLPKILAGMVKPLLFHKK
Test: qHTS assay to identify small molecule antagonists of the progesterone receptor (PR) signaling pathway (AID 1346795)
Conditions: PR-UAS-bla HEK293T, beta-lactamase FRET ratio, 16 h; series mostly up to 92.4 µM
Inconclusive results are not listed. Active and inactive are the calls of the source. The call rests on the fitted dose curve; in most records, active means well fitted inhibition curve with a large enough effect in the signal ratio in the repeat runs (not every such curve was filed as active); inconclusive means weak or mixed curves; inactive means flat fitted curve, though single readings scatter; the % refers to the signal ratio.
Answer with one of the outcomes active, inactive

CC(C)(C)c1ccccc1O | inactive

What call does the record list for CCCCCCCCOC(=O)c1ccccc1C(=O)OCCCCCCCC ?
inactive

Recorded test outcome, item CC(C)N(C(=O)SCC(Cl)=C(Cl)Cl)C(C)C
inactive

Please indicate how the test categorized CCCCCCCCC(=O)NCc1ccc(O)c(OC)c1 .
active

State the result this test recorded for CN(C)c1ccc(C(=O)c2ccc(N(C)C)cc2)cc1 .
active

Each molecule tested received a call. Report the one for Nc1c(Cl)cc([N+](=O)[O-])cc1Cl .
active

Just curious, what result did CNC(=O)N(C)c1nnc(C(C)(C)C)s1 get here?
inactive

For C=CC(=O)OCCO , which call appears in the assay record?
inactive

Write down the call the test reported for this molecule. Item: CCOc1cc(C=O)ccc1O
inactive

Could you kindly confirm the outcome this assay logged for CN(C)C(=O)Nc1ccc(Cl)cc1 ?
inactive

Can you look up the reported call for CCN(CC)N=O for me?
inactive

* * *

Test: qHTS assay for small molecule agonists of the p53 signaling pathway - cell viability (AID 651633); further: nearly all actives have a fitted effect of over 30% in size
Details: p53RE-bla HCT-116 viability, ATP luminescence, 16 h; series mostly up to 83.3 µM
Results filed as inconclusive are left out. Activity calls are given as the source filed them. Calls come from the whole dose curve.
Outcomes you can answer with include only these: t = active, f = inactive

Observe how each entry below is paired with its result.
CNC(=O)N(C)c1nnc(C(C)(C)C)s1 | f
CC(C)c1ccc(CO)cc1 | f
S=C1NCCN1 | f
N#CCCCl | f
C=CCN(CC=C)C(=O)C(Cl)Cl | f
C#CCOS(=O)OC1CCCCC1Oc1ccc(C(C)(C)C)cc1 (stereo unspecified) | f
CCN(CC)C(=O)/C(Cl)=C(\C)OP(=O)(OC)OC | f
Nc1ccc(-c2ccccc2)cc1 | f

Please let me know the test result on file for OCC(O)CO .
f

What classification did CCc1cccc(CC)c1N(COC)C(=O)CCl end up with in this test?
f

Field: outcome | Entry: CCC(CC)Nc1c([N+](=O)[O-])cc(C)c(C)c1[N+](=O)[O-]
f

For CC(C)N(C(=O)SCC(Cl)=C(Cl)Cl)C(C)C , which call appears in the assay record?
f

Tell me the assay call for c1ccc(-c2cccc(-c3ccccc3)c2)cc1 please.
f

Given CCCCCc1cc(O)cc(O)c1 , state the outcome it received in this test.
f

Which outcome was entered for the molecule CC(O)CCO (stereo unspecified) in this test?
f

Outcome? C1=Cc2cccc3cccc1c23
f

Dear colleague, could you share the recorded outcome for Oc1cc(Cl)ccc1Oc1ccc(Cl)cc1Cl when you have a moment?
t

# outcome recorded in this test, key = O=P(O)(O)CCCl
f

Called result for Nc1ccc(-c2ccc(N)c(N)c2)cc1N
t

Name the outcome recorded for CCCCC(CC)COC(=O)c1ccc(C(=O)OCC(CC)CCCC)c(C(=O)OCC(CC)CCCC)c1 (stereo unspecified) in the assay.
f

Write down the call the test reported for this molecule. Item: CCC(C)(c1ccc(O)cc1)c1ccc(O)cc1
f
